# Measured target: T1, GFP-9S library array, motif 4 ND N98S;D124T (synthetic construct, N98S;D124T)
# T1 chain: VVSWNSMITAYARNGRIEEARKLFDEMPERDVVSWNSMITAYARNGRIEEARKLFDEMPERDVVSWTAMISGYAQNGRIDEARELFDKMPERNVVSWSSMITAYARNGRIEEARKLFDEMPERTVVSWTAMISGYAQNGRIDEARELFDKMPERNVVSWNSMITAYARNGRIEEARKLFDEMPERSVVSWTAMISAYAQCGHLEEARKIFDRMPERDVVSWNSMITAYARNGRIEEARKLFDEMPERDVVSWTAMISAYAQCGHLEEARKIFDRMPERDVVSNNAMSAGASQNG
# Assay remarks: high-throughput RNA pulldown from lysate on Ni-NTA beads; HRP: 50 mM Tris pH 8, 150 mM NaCl, 1 mM beta-mercaptoethanol, 50 ug/ml BSA, 3 ug/ml yeast RNA, 0.5% heparin; ITC and FP: Tris pH 8, 200 mM KCl, 5% glycerol; MST: 50 mM Tris pH 8, 200 mM NaCl, 1 mM DTT, BSA, heparin, 0.05% Tween 20
# Test conditions: tags: N-terminal His-eGFP; label: 5' Cy5
Each entry below carries its recorded pKd.
The quantity pKd is defined as the negative base-10 logarithm of the molar concentration.

* AUUAGACGUGA (ssRNA) [Cy5-rpoA-G] | 6.54

Now consider the entry below.
Requested field: pKd. Item: AUUACACGUGA (ssRNA) [Cy5-rpoA] 6.73
